- Test system: SK-MEL-2
- assay.details: NCI tumour cell line growth inhibition, 48 h
Active and inactive are the calls of the source. Cut-off read from the data, not from the text of the source: active = GI50 up to about 1.1 µM and inactive = higher.
Outcomes: active, inactive

compound: CC(=O)NC(CS/N=N/c1[nH]cnc1C(N)=O)C(=O)O (stereo unspecified)
tested.system: SK-MEL-2
qualitative.label: inactive

compound: NCC(=O)C(O)C(O)C(O)CO (stereo unspecified)
tested.system: SK-MEL-2
qualitative.label: inactive

compound: O=C(/N=C1\SCCN1C(=O)C(C(F)(F)F)C(F)(F)F)C(C(F)(F)F)C(F)(F)F
tested.system: SK-MEL-2
qualitative.label: inactive

compound: CCOP(=O)(OCC)C(=C1C=C(C(C)(C)C)C(=O)C(C(C)(C)C)=C1)P(=O)(OCC)OCC
tested.system: SK-MEL-2
qualitative.label: inactive

compound: N#Cc1nc(CCCCCN2C(=O)c3ccccc3C2=O)oc1N
tested.system: SK-MEL-2
qualitative.label: inactive

compound: C#C[C@]1(O)[C@@H](CO)O[C@@H](n2ccc(N)nc2=O)[C@@H]1O
tested.system: SK-MEL-2
qualitative.label: active

compound: O=C1c2ccccc2-c2c1c1ccccc1c(=O)n2Cc1ccco1
tested.system: SK-MEL-2
qualitative.label: inactive

compound: CCN(CC)CCCC(C)Nc1ccnc2cc(Cl)ccc12 (stereo unspecified) [CHLOROQUINE PHOSPHATE]
tested.system: SK-MEL-2
qualitative.label: inactive

compound: CN(C)CCOC1(Cc2ccc(Cl)cc2Cl)CCC(C(C)(C)C)CC1 (stereo unspecified)
tested.system: SK-MEL-2
qualitative.label: inactive

compound: Cc1ccc(/C=C2\CN(C)CC3C2=NN(c2ccccc2)C3c2ccc(C)cc2)cc1 (stereo unspecified)
tested.system: SK-MEL-2
qualitative.label: inactive

compound: CC(=O)Oc1ccc2[nH]c3c(C)c4cccc-4ccc3c2c1
tested.system: SK-MEL-2
qualitative.label: inactive

====

- Tested on: HCC 2998
- assay.details: NCI tumour cell line growth inhibition, 48 h
Active and inactive are the calls of the source. Rule as the data show it: active = GI50 up to about 1.1 µM and inactive = higher. Non-standard residues stand in square brackets, D forms with d. Residues, ends and D or L forms follow the SMILES beside them. ξ: configuration not given here. *: point of attachment. ξF = NC(Cc1ccccc1)C(=O)O; Cbz = O=C(OCc1ccccc1)*
Outcomes: class 1 (active), class 0 (inactive)

compound: O=[N+]([O-])c1ccc(/C=C/c2ccc(/C=C/c3ccc([N+](=O)[O-])cc3[N+](=O)[O-])cc2)c([N+](=O)[O-])c1
qualitative.label: class 0
--
compound: c1ccc2c(c1)c(N1CCCCC1)cc1nc3c(cc(N4CCCCC4)c4ccccc43)nc12
qualitative.label: class 0
--
compound: CCSCN(C)c1nc(N(C)C)nc(N(C)C)n1
qualitative.label: class 0
--
compound: O=[N+]([O-])c1cc2c(cc1O)[nH]c1cccc([N+](=O)[O-])c12
qualitative.label: class 0
--
compound: O=C1C(Cl)=C(Oc2ccc([N+](=O)[O-])cc2)C(=O)c2c(O)ccc(O)c21
qualitative.label: class 0
--
compound: Cn1c(=O)c2c(nc3n(Cc4ccccc4)c(=O)c(NCCCBr)cn23)n(C)c1=O
qualitative.label: class 0
--
compound: COC(=O)[C@@H]1[C@H](OC(C)=O)CCC2[C@@]3(C[C@@H](c4ccoc4)O[C@@H]3OC)[C@H](C)CC[C@]21C(=O)OC (stereo not given in full)
qualitative.label: class 0
--
compound: Cc1ccc2c(c1)nc1n2C(c2c(F)cccc2F)SC1 (stereo not given)
qualitative.label: class 0
--
compound: Cc1cc(C)c(P2C(=C(O[Si](C(C)C)(C(C)C)C(C)C)C(C)(C)C)C2(c2ccccc2)c2ccccc2)c(C)c1 (stereo not given)
qualitative.label: class 0
--
compound: COc1ccc2c(c1)c1c(n2CCN2CCCCC2)-c2cccc(OC)c2CC1
qualitative.label: class 0
--
compound: C=C(c1ccc2[nH]c(NC(=O)OC)nc2c1)c1cccs1
qualitative.label: class 1
--
compound: COc1ccc2nc(-c3ccccc3)c(=O)[nH]c2c1
qualitative.label: class 0
--
compound: CC(=O)Nc1nnc(S(=O)(=O)NC(=S)Nc2ccc(Cl)cc2)s1
qualitative.label: class 0
--
compound: CC1=CC(/C=C(\C)CCCc2ccoc2)C2(OC(=O)C(C)=C2O)[C@H]2C1CC[C@@H]2C (stereo not given in full)
qualitative.label: class 0
--
compound: CCCCN(CCCC)CCC(O)c1cc(-c2ccc(C(F)(F)F)cc2)nc(-c2ccc(C(F)(F)F)cc2)c1 (stereo not given)
qualitative.label: class 0
--
compound: COc1ccc(CNc2nc(NCc3ccc(OC)cc3)nc(NC(C)C)n2)cc1
qualitative.label: class 0
--
compound: C=C(CC(NC(=O)c1ccc(C(CC)Cc2cnc3nc(N)nc(N)c3n2)cc1)C(=O)O)C(=O)O (stereo not given)
qualitative.label: class 1
--
compound: Cc1ccccc1SC(/C=C/NNC1=NN=C(c2ccccc2)C(c2ccccc2)N1)c1ccccc1 (stereo not given)
qualitative.label: class 0
--
compound: N=C1/C(=C/c2ccco2)C(=O)N=C2SC=NN12
qualitative.label: class 0
--
compound: COC(=O)[C@@H]1CN(C(C)=O)C(=O)N1C(=O)OCc1ccccc1
qualitative.label: class 0
--
compound: COc1ccc(CNc2nc(NCc3ccc(OC)cc3)nc(NC3CCCCC3)n2)cc1
qualitative.label: class 1
--
compound: COC(=O)C(=O)C(CC(=O)Nc1cccc(C(F)(F)F)c1)C(=O)OC (stereo not given)
qualitative.label: class 0
--
compound: CC(=O)c1sc(-c2nc(C)c(C(=O)/C=C\c3ccc(/C=C\C(=O)c4sc(-c5nc(C)c(C(C)=O)s5)nc4C)cc3)s2)nc1C
qualitative.label: class 0
--
compound: C#CC(=O)OCC#CCOC(=O)C#C
qualitative.label: class 0
--
compound: CN(C)CCOC1(Cc2ccc(Cl)cc2Cl)CCC(C(C)(C)C)CC1 (stereo not given)
qualitative.label: class 0
--
compound: C[C@@H](c1ccccc1)N1C[C@@H](c2ccc3c(c2)OCO3)[C@@H]2C(=O)CCC[C@@H]21
qualitative.label: class 0
--
compound: COC(=O)[C@@]12CCCC(=O)[C@@H]1[C@H]1CCC[C@H]12
qualitative.label: class 0
--
compound: CCOC(=O)CNC(=O)C(Cc1ccccc1)NC(=O)OCc1ccccc1 (stereo not given) (Cbz-[ξF]-Gly-OEt)
qualitative.label: class 0
--
compound: CC(=O)NC(CCCN(Cc1ccccc1)C(=O)N(C)N=O)C(=O)NCc1ccccc1 (stereo not given)
qualitative.label: class 0
--
compound: C/C(=N\Nc1nc2ccccc2s1)c1cc(C)ncn1
qualitative.label: class 0
--
compound: c1ccc2/c3[nH]/c(c2c1)=N\c1ccc(cc1)-c1nc2ccc(cc2o1)/N=c1/[nH]/c(c2ccccc12)=N/c1ccc2nc(oc2c1)-c1ccc(cc1)\N=3
qualitative.label: class 0
--
compound: c1ccc2[nH]c3nc4ccccc4c-3cc2c1
qualitative.label: class 1
--
compound: NC1CC(=O)c2ccccc21 (stereo not given)
qualitative.label: class 0
--
compound: C[N+](C)(CCO)CCN1c2ccccc2Sc2ccccc21
qualitative.label: class 0
--
compound: CC(=O)NC(CCCCNC(=O)OC(C)(C)C)C(=O)O (stereo not given)
qualitative.label: class 0

====

- Tested on: MDA-MB-231
- assay.details: NCI tumour cell line growth inhibition, 48 h
Calls of active or inactive are those of the source. No stated cut-off is given here; in the data, active = GI50 up to about 1.1 µM and inactive = higher.

compound: O=c1cc(N2CCN(c3cc(=O)n4ccccc4n3)CC2)oc2ccccc12
GI50: 61.9 µM (inactive)
--
compound: CSCCC(NOC(=O)Cc1ccccc1)P(=O)(O)c1ccccc1 (stereo unspecified)
GI50: > 100 µM (inactive)
--
compound: CC(C)(/N=N/C(C)(C)C1=NCCN1)C1=NCCN1
GI50: > 100 µM (inactive)
--
compound: COC(=O)[C@H]1[C@H](OC(=O)[C@@H](OC)c2ccccc2)ON2CC[C@@H](OC(=O)c3ccccc3)[C@H]12
GI50: 74.3 µM (inactive)
--
compound: CC(=O)O[C@H]1CCC2[C@@H]3CCC4Nc5oncc5C[C@]4(C)C3CC[C@@]21C (stereo partly specified)
GI50: > 10 µM (inactive)
--
compound: Cc1ccc(C=C(C(=O)O)C(=O)O)o1
GI50: > 100 µM (inactive)

====

- Tested on: SN12C
- assay.details: NCI tumour cell line growth inhibition, 48 h
Calls of active or inactive are those of the source. No stated cut-off is given here; in the data, active = GI50 up to about 1.1 µM and inactive = higher.

molecule: O=C(NCCCCCCNC(=O)n1cc(F)c(=O)[nH]c1=O)NCCCOCCOCCOCCOCCOCCOCCOCCOCCOCCOCCOCCOCCOCCOCCOCCOCCOCCOCCOCCOCCOCCCNC(=O)C(O)C(O)C(O)C(O)CO (stereo not given)
GI50: 80 µM (inactive)
//
molecule: CC(=O)C1COC(O)C1C (stereo not given)
GI50: 20.7 µM (inactive)
//
molecule: O=C(NCC(O)CNC(=O)C(F)(F)F)C(F)(F)F
GI50: > 100 µM (inactive)
//
molecule: O=C(CSCC(=O)N/N=C\c1ccc(O)c(O)c1O)N/N=C\c1ccc(O)c(O)c1O
GI50: 21.2 µM (inactive)
//
molecule: Oc1c(Br)cc(/C=C/c2cccc(/C=C/c3cc(Br)c(O)c(Br)c3)n2)cc1Br
GI50: 9.68 µM (inactive)

Data origin: ChEMBL document CHEMBL1201862
